- procedure_details: Inhibition of Plasmodium falciparum falcipain-2 after 12 hrs by fluorescence spectroscopy-based on-bead assay
- Parameters: concentration or dose not given beside the values
- condition_details: concentration not given here
Square brackets hold non-standard residues; d marks the D form. Peptide text beside a SMILES is read from it. * marks the point of attachment. Fumaroyl(AlaGlyPheOH) = C[C@H](NC(=O)/C=C/C(=O)*)C(=O)NCC(=O)N[C@@H](Cc1ccccc1)C(=O)O; Chg = N[C@H](C(=O)O)C1CCCCC1; Dap = NC[C@H](N)C(=O)O
measure_name: inhibition (%)
Give just the numeric value; % need not be written.

Recorded inhibition, per entry:
>>> experimental_result("CC[C@H](C)[C@H](NC(=O)[C@H](CC(N)=O)NC(=O)/C=C/C(=O)NCC(=O)NCC(=O)N[C@@H](Cc1ccccc1)C(=O)O)C(=O)N[C@H](C(=O)N[C@H](C(N)=O)C(C)C)C(C)C (HELM PEPTIDE1{[O=C(/C=C/C(=O)[*:2])NCC(=O)NCC(=O)N[C@@H](Cc1ccccc1)C(=O)O].N.I.V.V.[am]}$$$$V2.0)")
57
>>> experimental_result("CC(C)[C@H](NC(=O)[C@H](C)NC(=O)[C@@H](NC(=O)[C@H](C)NC(=O)/C=C/C(=O)N[C@@H](C)C(=O)NCC(=O)N[C@@H](Cc1ccccc1)C(=O)O)C1CCCCC1)C(N)=O (HELM PEPTIDE1{[C[C@H](NC(=O)/C=C/C(=O)[*:2])C(=O)NCC(=O)N[C@@H](Cc1ccccc1)C(=O)O].A.[O=C([C@@H](N[*:1])C1CCCCC1)[*:2]].A.V.[am]}$$$$V2.0)")
38
>>> experimental_result("CC(C)[C@H](NC(=O)[C@H](C)NC(=O)[C@H](Cc1ccccc1)NC(=O)[C@H](Cc1ccccc1)NC(=O)/C=C/C(=O)N[C@@H](C)C(=O)NCC(=O)N[C@@H](Cc1ccccc1)C(=O)O)C(N)=O (HELM PEPTIDE1{[C[C@H](NC(=O)/C=C/C(=O)[*:2])C(=O)NCC(=O)N[C@@H](Cc1ccccc1)C(=O)O].F.F.A.V.[am]}$$$$V2.0)")
30
>>> experimental_result("CC(C)[C@H](NC(=O)[C@@H](NC(=O)[C@@H](NC(=O)[C@H](CCC(N)=O)NC(=O)/C=C/C(=O)N[C@@H](C)C(=O)NCC(=O)N[C@@H](Cc1ccccc1)C(=O)O)C1CCCCC1)C(C)C)C(N)=O (HELM PEPTIDE1{[C[C@H](NC(=O)/C=C/C(=O)[*:2])C(=O)NCC(=O)N[C@@H](Cc1ccccc1)C(=O)O].Q.[O=C([C@@H](N[*:1])C1CCCCC1)[*:2]].V.V.[am]}$$$$V2.0)")
47

Give the measured inhibition of CC[C@H](C)[C@H](NC(=O)[C@H](CNC(C)=O)NC(=O)/C=C/C(=O)N[C@@H](C)C(=O)NCC(=O)N[C@@H](Cc1ccccc1)C(=O)O)C(=O)N[C@@H](CC(C)C)C(=O)N[C@H](C(N)=O)C(C)C (HELM PEPTIDE1{[C[C@H](NC(=O)/C=C/C(=O)[*:2])C(=O)NCC(=O)N[C@@H](Cc1ccccc1)C(=O)O].[O=C([C@H](CN[*:3])N[*:1])[*:2]].I.L.V.[am]}|PEPTIDE2{[ac]}$PEPTIDE1,PEPTIDE2,2:R3-1:R2$$$V2.0) .
32

Give the measured inhibition of CC(C)C[C@H](NC(=O)[C@@H](NC(=O)[C@H](CCC(N)=O)NC(=O)/C=C/C(=O)NCC(=O)NCC(=O)N[C@@H](Cc1ccccc1)C(=O)O)c1ccccc1)C(=O)N[C@H](C(N)=O)C(C)C (HELM PEPTIDE1{[O=C(/C=C/C(=O)[*:2])NCC(=O)NCC(=O)N[C@@H](Cc1ccccc1)C(=O)O].Q.[Phg].L.V.[am]}$$$$V2.0) .
50

Give the measured inhibition of CC(=O)NC[C@H](NC(=O)/C=C/C(=O)N[C@@H](C)C(=O)NCC(=O)N[C@@H](Cc1ccccc1)C(=O)O)C(=O)N[C@H](C(=O)N[C@H](C(=O)N[C@H](C(N)=O)C(C)C)C(C)C)C1CCCCC1 ({Fumaroyl(AlaGlyPheOH)}-[Dap](Ac)[Chg]VV-NH2) .
40

Give the measured inhibition of CC[C@H](C)[C@H](NC(=O)[C@H](CC(N)=O)NC(=O)/C=C/C(=O)N[C@@H](C)C(=O)NCC(=O)N[C@@H](Cc1ccccc1)C(=O)O)C(=O)N[C@@H](CC(C)C)C(=O)N[C@H](C(N)=O)C(C)C (HELM PEPTIDE1{[C[C@H](NC(=O)/C=C/C(=O)[*:2])C(=O)NCC(=O)N[C@@H](Cc1ccccc1)C(=O)O].N.I.L.V.[am]}$$$$V2.0) .
47

Give the measured inhibition of CC(C)[C@H](NC(=O)[C@H](C)NC(=O)[C@@H](NC(=O)[C@H](C)NC(=O)/C=C/C(=O)NCC(=O)NCC(=O)N[C@@H](Cc1ccccc1)C(=O)O)c1ccccc1)C(N)=O (HELM PEPTIDE1{[O=C(/C=C/C(=O)[*:2])NCC(=O)NCC(=O)N[C@@H](Cc1ccccc1)C(=O)O].A.[Phg].A.V.[am]}$$$$V2.0) .
41

Give the measured inhibition of CC(=O)NC[C@H](NC(=O)/C=C/C(=O)N[C@@H](C)C(=O)NCC(=O)N[C@@H](Cc1ccccc1)C(=O)O)C(=O)N[C@@H](CC(C)C)C(=O)N[C@@H](CC(C)C)C(=O)N[C@H](C(N)=O)C(C)C (HELM PEPTIDE1{[C[C@H](NC(=O)/C=C/C(=O)[*:2])C(=O)NCC(=O)N[C@@H](Cc1ccccc1)C(=O)O].[O=C([C@H](CN[*:3])N[*:1])[*:2]].L.L.V.[am]}|PEPTIDE2{[ac]}$PEPTIDE1,PEPTIDE2,2:R3-1:R2$$$V2.0) .
41

Give the measured inhibition of CC(C)[C@H](NC(=O)[C@H](C)NC(=O)[C@@H](NC(=O)[C@H](Cc1ccccc1)NC(=O)/C=C/C(=O)N[C@@H](C)C(=O)NCC(=O)N[C@@H](Cc1ccccc1)C(=O)O)c1ccccc1)C(N)=O (HELM PEPTIDE1{[C[C@H](NC(=O)/C=C/C(=O)[*:2])C(=O)NCC(=O)N[C@@H](Cc1ccccc1)C(=O)O].F.[Phg].A.V.[am]}$$$$V2.0) .
34

----------
- procedure_details: Inhibition of Plasmodium falciparum falcipain-2 after 12 hrs by fluorescence spectroscopy-based on-bead assay
- Set-up: concentration or dose not given beside the values
- condition_details: concentration not given here
Peptide text beside a SMILES is read from it.
measure_name: inhibition
I'd appreciate it if you wrote the number followed by its unit.

Recorded inhibition, per entry:
>>> experimental_result("CC(C)C[C@H](NC(=O)[C@@H](NC(=O)[C@H](CC(N)=O)NC(=O)/C=C/C(=O)NCC(=O)NCC(=O)N[C@@H](Cc1ccccc1)C(=O)O)c1ccccc1)C(=O)N[C@H](C(N)=O)C(C)C (HELM PEPTIDE1{[O=C(/C=C/C(=O)[*:2])NCC(=O)NCC(=O)N[C@@H](Cc1ccccc1)C(=O)O].N.[Phg].L.V.[am]}$$$$V2.0)")
"51%"
>>> experimental_result("CC(C)[C@H](NC(=O)[C@H](C)NC(=O)[C@@H](NC(=O)[C@H](CCC(N)=O)NC(=O)/C=C/C(=O)N[C@@H](C)C(=O)NCC(=O)N[C@@H](Cc1ccccc1)C(=O)O)C1CCCCC1)C(N)=O (HELM PEPTIDE1{[C[C@H](NC(=O)/C=C/C(=O)[*:2])C(=O)NCC(=O)N[C@@H](Cc1ccccc1)C(=O)O].Q.[O=C([C@@H](N[*:1])C1CCCCC1)[*:2]].A.V.[am]}$$$$V2.0)")
"55%"
>>> experimental_result("CC(C)C[C@H](NC(=O)[C@@H](NC(=O)[C@H](Cc1ccccc1)NC(=O)/C=C/C(=O)N[C@@H](C)C(=O)NCC(=O)N[C@@H](Cc1ccccc1)C(=O)O)c1ccccc1)C(=O)N[C@H](C(N)=O)C(C)C (HELM PEPTIDE1{[C[C@H](NC(=O)/C=C/C(=O)[*:2])C(=O)NCC(=O)N[C@@H](Cc1ccccc1)C(=O)O].F.[Phg].L.V.[am]}$$$$V2.0)")
"53%"
>>> experimental_result("CC(C)[C@H](NC(=O)[C@@H](NC(=O)[C@H](Cc1ccccc1)NC(=O)[C@H](CCC(N)=O)NC(=O)/C=C/C(=O)NCC(=O)NCC(=O)N[C@@H](Cc1ccccc1)C(=O)O)C(C)C)C(N)=O (HELM PEPTIDE1{[O=C(/C=C/C(=O)[*:2])NCC(=O)NCC(=O)N[C@@H](Cc1ccccc1)C(=O)O].Q.F.V.V.[am]}$$$$V2.0)")
"51%"
>>> experimental_result("CC(C)[C@H](NC(=O)[C@H](C)NC(=O)[C@H](Cc1ccccc1)NC(=O)[C@H](CC(N)=O)NC(=O)/C=C/C(=O)N[C@@H](C)C(=O)NCC(=O)N[C@@H](Cc1ccccc1)C(=O)O)C(N)=O (HELM PEPTIDE1{[C[C@H](NC(=O)/C=C/C(=O)[*:2])C(=O)NCC(=O)N[C@@H](Cc1ccccc1)C(=O)O].N.F.A.V.[am]}$$$$V2.0)")
"25%"

Next item in the queue.
Give the measured inhibition of CC(C)C[C@H](NC(=O)[C@@H](NC(=O)[C@H](C)NC(=O)/C=C/C(=O)NCC(=O)NCC(=O)N[C@@H](Cc1ccccc1)C(=O)O)C1CCCCC1)C(=O)N[C@H](C(N)=O)C(C)C (HELM PEPTIDE1{[O=C(/C=C/C(=O)[*:2])NCC(=O)NCC(=O)N[C@@H](Cc1ccccc1)C(=O)O].A.[O=C([C@@H](N[*:1])C1CCCCC1)[*:2]].L.V.[am]}$$$$V2.0) .
43%
